# System: SNB-19 CNS
# TEST DETAILS: NCI-60 one-dose screen, 48 h
# RUN PARAMETERS: 10 µM unless noted
The panel holds about 83,000 compounds, 20% with a hit somewhere; the sample as a whole holds those more often. Calls of active or inactive are those of the source. The calls were made as follows: active = growth percent below 10; inactive = the rest.
Hi there, use one of these labels in your reply, thanks! class 1 (active), class 0 (inactive)

Which result was noted for this compound in the test: O=C(c1ccccc1)C(c1ccccc1)N1CCOCC1 (stereo unspecified)
class 0

Assay outcome for COc1cc(-c2nc(C(=O)Nc3ccc(C)cc3)nn2-c2ccc(F)c(F)c2)cc(OC)c1OC : what was it?
class 0

Outcome logged for CCN(CC)CCNc1ccc(N=Nc2cnc3ccccc3c2)c2ccccc12 in this assay:
class 1

# outcome recorded in this test, key = CC1(COc2ccc3c(c2)ncn3-c2ccc3cccc(N4CCC(N)CC4)c3n2)COC1
class 1

Which result was noted for this compound in the test: CCCCCc1ccc(C)cc1OC(=O)CCl
class 0

Write down the call the test reported for this compound. Item: COc1ccc(/C(C)=C(\c2ccc(Cl)cc2)c2ccc(OCCN3CCCCCC3)cc2)cc1
class 0

Query: recorded result category for CCCCCCCC(=O)SCC/C=C/[C@@H]1CC(=O)NCc2nc(co2)C2=N[C@@](C)(CS2)C(=O)N[C@@H](C(C)C)C(=O)O1 in this test
class 1

Assay result, entry COc1c(OCCCN2CCOCC2)ccc2c3n(c(=NC(=O)c4cnc(N)nc4)nc12)CCN3 — outcome?
class 0

Hi, sorry to bother you, what did the test record for CC(=O)OC1Oc2ccccc2-c2oc(=O)c(-c3cc4ccc(N(C)C)cc4oc3=O)cc21 (stereo unspecified) ?
class 0

Given CCN(CC)c1cc2oc3cc(N)cc(=N)c-3nc2cc1C , state the outcome it received in this test.
class 0

Could you please tell me the result logged for Cc1cc(Nc2cc(N3CCN(C)CC3)nc(Sc3ccc(NC(=O)C4CC4)cc3)n2)n[nH]1 in this assay?
class 0

---

# Tested on: EKVX NSCLC
# TEST DETAILS: NCI-60 one-dose screen, 48 h
# RUN PARAMETERS: 10 µM unless noted
Compounds without any hit were thinned out: in the full panel of roughly 83,000, 20% have a hit. The source made the active and inactive calls. How the source made its calls: active means growth percent below 10; inactive means the rest.
Bench note: report the call from active, inactive

What was the test verdict on NN1C(=O)CSC1=S ?
inactive

Recorded call for Cn1ccnc1C(=O)/C=C/c1ccc(CC(=O)Nc2ccc(Br)cc2)cc1 ?
inactive

// param item: C=CCCCC(=O)CCC(=O)OCC1O[C@@H](O[C@@H]2C(O)[C@@H](OC(C)=O)C(C)O[C@H]2O[C@H](CC=C)CCCCC)C(O)[C@@H](OC(=O)/C(C)=C/C)[C@@H]1OC(=O)/C=C/c1ccccc1 (stereo partly specified) ; yields the recorded call
inactive

Per the assay record, what outcome was assigned to COc1ccc(/C(C)=C(\c2ccc(Cl)cc2)c2ccc(OCCN3CCCCCC3)cc2)cc1 ?
inactive

Any idea what this test logged for CO[C@@H](C)Cn1c(=O)n(C)c2cnc3ccc(-c4cncc(C(C)(C)O)c4)cc3c21 ?
active

Short answer needed: outcome of this test for COc1ccc(-c2ccc3ncc4c(c3c2)n(-c2ccc(N3CCNCC3)c(C(F)(F)F)c2)c(=O)n4C)cn1 ?
active

Recorded test call requested for COc1cccc2cc(-c3nc(C4CCC(C(=O)O)CC4)n4ncnc(N)c34)[nH]c12 (stereo unspecified)
inactive

Look up the recorded call for Cc1nc2ccc(-n3ncc(C(=O)c4cc5ccccc5[nH]4)c3N)cc2[nH]1 in this test.
inactive

// param item: C=C1C[C@H](O)[C@H](Br)C(C)(C)[C@@]12CCC(C)=C(Cl)C2 ; yields the recorded call
inactive

Recorded call for O=C(Cc1ccc(/C=C/C(=O)c2ncc[nH]2)cc1)Nc1ccc(S(F)(F)(F)(F)F)cc1 ?
inactive

Answer briefly: the call reported for CCN(CC)CCNC(=O)c1c(C)[nH]c(/C=C2\C(=O)Nc3ccc(F)cc32)c1C in this assay.
inactive

Each compound tested received a call. Report the one for O=C(NC1CCNCC1)c1[nH]ncc1NC(=O)c1c(Cl)cccc1Cl .
inactive

Can you look up the reported call for CNC(=O)c1ccc(Nc2ncc(C(F)(F)F)c(NCc3nccnc3N(C)S(C)(=O)=O)n2)cc1 for me?
active

Lab log entry: CC(C)[C@@H]1CC[C@@H]2[C@@H]1[C@H](OC(=O)/C=C/c1ccccc1)[C@]1(C(C)C)C[C@@H](OC(=O)CO)[C@@]2(C)O1 — outcome as called in the assay?
inactive

# outcome recorded in this test, key = COc1cc(OC)c(C(=O)/C=C/c2cc3c(cc2OCc2ccccc2)OC(C)(C)CC3)cc1CC=C(C)C
inactive

Could you kindly confirm the outcome this assay logged for O=C1CC(c2ccc(Cl)cc2)c2ncn(-c3cccc(Cl)c3)c2N1 (stereo unspecified) ?
inactive

I'd appreciate the recorded outcome for COc1cc(F)c(F)c(Nc2ccc(I)cc2F)c1NS(=O)(=O)C1(C[C@H](O)CO)CC1 from this test.
inactive

Hi team, can someone confirm the assay call for CN1CCN(c2nc(C3=C(c4c[nH]c5ccccc45)C(=O)NC3=O)c3ccccc3n2)CC1 ?
inactive

Each compound tested received a call. Report the one for CCN(CC)CCNc1ccc(N=Nc2cnc3ccccc3c2)c2ccccc12 .
active

Answer briefly: the call reported for N#Cc1c(NC(=O)c2ccco2)[n+]([O-])c2cc(F)c(F)cc2[n+]1[O-] in this assay.
inactive

For this compound, state the assay outcome: COc1ccc(Br)cc1NC(=O)Nc1cccc2c1ccn2Cc1ccnc(N)c1
inactive

# outcome recorded in this test, key = COc1ccc2c(OCc3nnc4ccc(-c5ccccc5)nn34)ccnc2c1
inactive

Dear all, I need the recorded test outcome for CC(=O)NCC(=O)N1[C@@H]2CC[C@H]1c1ccc(Nc3ncc(C(F)(F)F)c(NC4CCC4)n3)cc12 , thank you.
inactive

Query: recorded result category for COc1cnc2c(c1)C(=O)c1c-2n(CCCN2CCC(N)CC2)c(=O)c2cc([N+](=O)[O-])ccc12 in this test
inactive

Look up the recorded call for C[N+](C)(CCOC(c1ccccc1)c1ccccc1)CC(=O)OCc1ccccc1 in this test.
inactive

I would be grateful if you could indicate the recorded call for CCCCCCCC(=O)SCC/C=C/[C@@H]1CC(=O)NCc2nc(co2)C2=N[C@@](C)(CS2)C(=O)N[C@@H](C(C)C)C(=O)O1 .
inactive

Hi team, can someone confirm the assay call for CCN(CC)c1cc2oc3cc(N)cc(=N)c-3nc2cc1C ?
inactive

Write down the call the test reported for this compound. Item: O=CC(OC(=O)c1ccccc1)C(OC(=O)c1ccccc1)C(COC(c1ccccc1)(c1ccccc1)c1ccccc1)OC(=O)c1ccccc1 (stereo unspecified)
inactive

I would be grateful if you could indicate the recorded call for CCCCN1CCCC[C@@H]1C(=O)N[C@H](C(=O)N(C)[C@H](CCc1nc(C(=O)N[C@@H](Cc2ccccc2)C[C@H](C)C(=O)OC)cs1)C(C)C)C(C)C .
inactive

What classification did CCCCn1c(C)nc2ccc(Nc3nc(N4CCN(C)CC4)nc4nc[nH]c34)cc21 end up with in this test?
inactive

Per the records of this test, what outcome belongs to O=S1(=O)OC(c2cc(Cl)c(O)c(Br)c2)(c2cc(Cl)c(O)c(Br)c2)c2ccccc21 ?
inactive

# fetch the recorded call for N#Cc1c(C(F)(F)F)cc(Nc2ccc3nc(NCCN4CCCC4)oc3c2)n2c1nc1ccccc12 here
inactive

# lookup: test call for CNc1ncc2cc(-c3cc(NC(=O)NCCC(C)(C)C)c(F)cc3C)c(C)nc2n1
inactive

What outcome does the record of this test show for CC(C)(C)c1nc(-c2cccc(NS(=O)(=O)c3c(F)cccc3F)c2F)c(-c2ccnc(N)n2)s1 ?
inactive

Test call for this compound, please: Nc1cc2c(cc1Br)-c1c(C(=O)O)cccc1C2O (stereo unspecified)
inactive

Which outcome did this test record for the compound COc1cc(N2CCC(N(C)C)CC2)ccc1Nc1ncc(Cl)c(Nc2ccccc2P(C)(C)=O)n1 ?
inactive

---

Can you tell me growth for the items I'm about to list?
# Tested on: ACHN renal
# TEST DETAILS: NCI-60 one-dose screen, 48 h (100 = growth as untreated, 0 = no growth, -100 = all killed)
# RUN PARAMETERS: 10 µM unless noted
# Protocol: Growth inhibition of the ACHN human tumor cell line is measured as a screen for anti-cancer activity. Cells are grown in 96 well plates and exposed to the test compound for 48 hours. Compounds are tested at a single concentration, which is 10^-5 M for most compounds. The reported endpoint is percent growth (GI% or GIPRCNT), where numbers from 0 - 100% represent growth inhibition, and numbers from -100% - 0 represent cell death. For example, a value of 40 represents 60% growth inhibition. […]
The panel holds about 83,000 compounds, 20% with a hit somewhere; the sample as a whole holds those more often. Active and inactive are the calls of the source. How the source made its calls: active means growth percent below 10; inactive means the rest.

Indicate the recorded growth value for this compound: CC[C@@H]1C(=O)N(C)c2cnc(Nc3ccc(C(=O)NC4CCC(N5CCN(CC6CC6)CC5)CC4)cc3OC)nc2N1C(C)C (stereo not given in full)
-3.77% (active)

Give me measured growth, please, for this compound: COC[C@@H](C)n1c(C2CCOCC2)nc2c1C1C=C(OC)C(c3c(C)noc3C)=CC1N=C2 (stereo not given in full)
41.2% (inactive)

Determine from records and report growth for Cc1cc(Nc2cc(N3CCN(C)CC3)nc(/C=C/c3ccccc3)n2)n[nH]1
0.23% (active)

Kindly indicate its recorded growth. Item: Cc1ncc(-c2ccnc(Nc3ccc(S(C)(=O)=O)cc3)n2)n1C(C)C
0.0849% (active)

State its growth for this compound: c1cc[n+](Cc2c3ccccc3cc3c2ccc2ccccc23)cc1
103% (inactive)

Hello, please tell me recorded growth for this one: CCOc1cccc(/C=N/NC(=O)c2ccccc2Nc2ccnc(C(F)(F)F)c2)c1O
5.76% (active)

State its growth: COc1ccc(Cc2cc(-c3ccccc3C)n[nH]c2=O)cc1
104% (inactive)

Look up and report measured growth for this entry: CC/C=C\C[C@H]1C/C=C2/C(=O)C=C[C@@H]2C/C=C\CCCC(=O)O1
-89.3% (active)

Hello, please tell me recorded growth for this one: COC(=O)[C@H](C)NC(=O)[C@@H](OC)[C@@H]1Cc2cc3cc(OC4CC(OC5CC(O)C(O)C(C)O5)C(O)C(C)O4)c(C)c(O)c3c(O)c2C(=O)[C@H]1OC1CC(OC2CC(OC3CC(C)(O)C(O)C(C)O3)C(O)C(C)O2)C(O)C(C)O1 (stereo not given in full)
-1.98% (active)

Read the entry CC(C)[C@@H](C)/C=C/[C@@H](C)[C@H]1CCC2=C3C=CC4=CC(=O)CC[C@]4(C)[C@H]3CC[C@@]21C and write its reported growth.
109% (inactive)

Assign growth to the following record: CC(=Nc1ccccc1)C1=C(O)C(Cc2ccc(O)cc2)NC1=O (stereo not given)
33.2% (inactive)

Please indicate growth recorded for CC#CC(=O)N1CCC[C@H]1c1nc(-c2ccc(C(=O)Nc3ccccn3)cc2)c2c(N)nccn12
73.6% (inactive)

Dear colleague, please send me the reported growth for COC(=O)c1ccc2c(C(=Nc3ccc(N(C)C(=O)CN4CCN(C)CC4)cc3)c3ccccc3)c(O)[nH]c2c1 when you can.
48.8% (inactive)

Give growth for the following compound: Cn1cc(-c2cnn3c(N)c(Br)c([C@@H]4CCCNC4)nc23)cn1
19.8% (inactive)

Return value of growth for input CNC(=O)c1cnc(C)nc1-c1cc(C(C)(C)C)c(O)c(C(C)(C)C)c1 , no commentary.
101% (inactive)

Return growth (reported value) for this compound: CN1CCN(CC(=O)Nc2ccc(-c3nc4ccccc4s3)cc2)CC1
71.2% (inactive)

Note down growth recorded for CCCCCC(=O)OCc1ccc(Cl)c(Cl)c1
107% (inactive)

Indicate its recorded growth; the compound in question is Cc1[nH]c(/C=C2\C(=O)Nc3ccc(F)cc32)c(C)c1C(=O)NC[C@H](O)CN1CCOCC1
23.8% (inactive)

Recall and state the measured growth for CN(c1ncccc1CNc1nc(Nc2ccc3c(c2)CC(=O)N3)ncc1C(F)(F)F)S(C)(=O)=O .
-0.448% (active)

Indicate its recorded growth; the compound in question is CCOC(=O)C1=C(C)N=C2Sc3cc(OC(F)(F)F)ccc3N2[C@H]1c1ccccn1
32.8% (inactive)
